# Tested on: COLO 205 colon
# assay-notes: NCI tumour cell line growth inhibition, 48 h
The entries below are paired with their reported GI50.

compound	test-system	GI50
N/C(=N/N=C/c1ccccc1)N/N=C\c1ccccc1	COLO 205 colon	3660 nM
N#C[Se]CCN1C(=O)C2C(C1=O)[C@H]1C=C[C@@H]2S1 (stereo not given in full)	COLO 205 colon	2450 nM
CN(C)CCCCC(C(=O)CBr)(c1ccccc1)c1ccccc1	COLO 205 colon	1780 nM
O=c1[nH]c(=O)c2cc3cc(C4CC(O)C(CO)O4)ccc3cc2[nH]1 (stereo not given)	COLO 205 colon	> 100000 nM
CCN1C(=O)N(CC)C2C1NN=c1s/c(=C\c3ccco3)c(=O)n12 (stereo not given)	COLO 205 colon	403 nM
[Cl][Hg][c]1ccc(Cl)s1	COLO 205 colon	1390 nM
C[C@]12CC[C@@H]3c4cc(O)c(O)cc4CC[C@H]3[C@@H]1CC[C@@H]2O	COLO 205 colon	28900 nM
CCCc1cc(=O)n2c(C(=O)Nc3cccc(C(=O)OCC)c3)c(C(=O)Nc3ccc(F)cc3)sc2n1	COLO 205 colon	70800 nM
CCCCCCCCC/C(=N\NC(=O)c1ccncc1)c1ccc(O)c(O)c1O	COLO 205 colon	617 nM
CC[C@@]1(O)C(=O)OCc2c1cc1n(c2=O)Cc2cc3cccc([N+](=O)[O-])c3nc2-1	COLO 205 colon	4630 nM
CCCCCCn1c(-c2ccc(C(=O)O/N=C(\N)c3ccc4ccccc4c3)cc2)nc(-c2ccccc2)c1-c1ccccc1	COLO 205 colon	> 100000 nM
COc1ccc(Nc2cc(C)nc(NCc3ccccc3)n2)cc1	COLO 205 colon	2080 nM
O=C([O][Hg][CH2]C1OCCOC1[CH2][Hg][O]C(=O)c1ccccc1)c1ccccc1 (stereo not given)	COLO 205 colon	1820 nM
CC/C(=C(/c1ccc(O)cc1)c1ccc(OCCN)cc1)c1ccccc1	COLO 205 colon	1950 nM
O=C(/C(=C/c1ccc([N+](=O)[O-])cc1)SCc1ccc(Cl)cc1)c1ccc(F)cc1	COLO 205 colon	3800 nM
S=C(NCCNC(=S)[S][Sn]([c]1ccccc1)([c]1ccccc1)[c]1ccccc1)[S][Sn]([c]1ccccc1)([c]1ccccc1)[c]1ccccc1	COLO 205 colon	16.6 nM
Cn1cc(C2=C(c3c4n(c5ccccc35)CCC(CN)C4)C(=O)NC2=O)c2ccccc21 (stereo not given)	COLO 205 colon	1630 nM
NC1CCCCC1N.O=[Se]([O-])[O-].[Pt+4] (stereo not given)	COLO 205 colon	1190 nM
CN1CCC2(CC1)NC(=O)c1c(c3ccc(Cl)c(Cl)c3n1C)C2C#N (stereo not given)	COLO 205 colon	1800 nM
CCOC(=O)c1cc(C(=O)c2cc(OC)c(OC)c(OC)c2)n2c1ccc1ccccc12	COLO 205 colon	260 nM

Every entry's value here was drawn from PubChem BioAssay (NCI).
